# method description: physchem
# measurement context: water, 25 °C, thermodynamic from solid

{"columns": ["compound", "reading unit", "solubility at 30 min"],
 "data": [
  ["CNC[C@H](O)c1ccc(O)c(O)c1 [epinephrine bitartrate]", "mg/mL", 827]
]}
